Test: chemical genetic growth profiling, strain panel (AID 1159580);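 also: tested at 20 µM; growth read once vehicle control cultures reached saturation at 30 °C; 1 = growth at the plate median or of vehicle wells; lower values mean less growth of the strain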
Settings: S. cerevisiae deletion strains, growth OD, locus YDR069C, strain doa4, stronger effect = lower value
Among all 5,500 compounds or so, about 2,000 (36%) were called active. Not shown: some 18% with an inconclusive outcome. The list shows a part of the results.
Collected normalized growth values appear next to each entry.
# answer = number (no unit)

Take a look at these entries with their results.
N[C@H](Cc1ccccc1)C(=O)O :: 0.997
CC(CN(C)C)CN1c2ccccc2Sc2ccccc21 (stereo not drawn) :: 1.01
O=C(O)c1ccccc1C(=O)Nc1ccc(S(=O)(=O)Nc2nccs2)cc1 :: 0.975
CN(C)C(=O)Nc1ccc(Cl)c(Cl)c1 :: 0.987
CCCCS(=N)(=O)CCC(N)C(=O)O (stereo not drawn) :: 1.01

Task: Entry CCN(CCCc1ccccc1)CCCc1ccccc1 : reported normalized growth = ?
Result: 0.974

Task: Proceed to CC1=C2[C@H]3OC(=O)[C@@H](C)[C@@H]3CC[C@@]2(C)C=CC1=O
Result: 0.946

Task: One more compound: CC(CN1c2ccccc2Sc2ccccc21)N(C)C (stereo not drawn)
Result: 0.946

----------
Experiment: chemical genetic growth profiling, strain panel (AID 1159580);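 also: tested at 20 µM; growth read once vehicle control cultures reached saturation at 30 °C; 1 = growth at the plate median or of vehicle wells; lower values mean less growth of the strain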
Settings: S. cerevisiae deletion strains, growth OD, locus YDL185W, strain tfp1, stronger effect = lower value
Among all 5,500 compounds or so, about 2,000 (36%) were called active. About 18% were inconclusive and are not listed. Some of the results follow.
Readout Type: normalized growth
// no unit string in output, number only

CC(=O)Nc1ccccc1 :: 0.986
C=C1C2=CC(=O)O[C@@H](c3ccoc3)[C@]2(C)CCC1[C@@]1(C)C=CC(=O)C(C)(C)[C@@H]1CC(=O)OC (stereo partly specified) :: 0.988
COc1c2ccccc2nc2occc12 :: 0.99
COC(=O)c1c(C)cc(OC(=O)c2c(C)c(Cl)c(O)c(C=O)c2O)c(C)c1O :: 0.963
COC(=O)c1c(C)cc(OC(=O)c2c(C)cc(O)c(C=O)c2O)c(C)c1O :: 0.991

Please find the next compound below.
Task: State the recorded normalized growth for this entry: CCCCC[C@H](CC(=O)NO)C(=O)N[C@H](C(=O)N1CCC[C@H]1CO)C(C)C
Result: 1.01

----------
Measured normalized growth accompanies every entry in the list below.
Test: chemical genetic growth profiling, strain panel (AID 1159580);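 also: tested at 20 µM; growth read once vehicle control cultures reached saturation at 30 °C; 1 = growth at the plate median or of vehicle wells; lower values mean less growth of the strain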
Details: S. cerevisiae deletion strains, growth OD, locus YLR262C, strain YPT6, stronger effect = lower value
In all, about 5,500 compounds went through this assay and about 2,000 (36%) were called active. Inconclusive results (about 18%) are left out. This is one part of the list.

Example cases with answers are listed next.
N[C@@H]1[C@@H](O)[C@H](O)[C@@H](CO)O[C@H]1O :: 1.02 (inactive)
C/C(=N/Nc1c(Cl)cc(Cl)cc1Cl)c1cc(F)ccc1OC(=O)c1ccccc1F :: 0.957 (inactive)
Cc1cc(CN2CC(C)OC(C)C2)cc(C)c1O (centres undefined) :: 0.954 (inactive)

Task: Which normalized growth value belongs to CN(C)C(=O)Nc1ccc(Cl)c(Cl)c1 ?
Result: 1.01 (inactive)

Task: Same question for CN(C)N=Nc1nc[nH]c1C(N)=O please.
Result: 1.02 (inactive)

Task: Please do the same for N/C(=N/O)c1csc(-c2ccc(F)cc2F)n1 as well.
Result: 0.969 (inactive)
